Molecular target: Replicase polyprotein 1ab (Severe acute respiratory syndrome coronavirus 2, UniProt P0DTD1)
pIC50: −log10 of the molar value.
property label: pIC50

• Nc1ncnc2c1ncn2[C@@H]1O[C@H](CSCC[C@H](N)C(=O)O)[C@@H](O)[C@H]1O = 6.66

====

Assay: Cytotoxicity against human A549-ACE2 cells
Type: toxicity, cell-based
Reported CC50 by item:
property label: CC50

• COCn1ccc(N2C[C@H]3O[C@]4(C2)CN(S(=O)(=O)c2ccc(C)cc2)[C@]2(C(C)C)CC[C@H](O)[C@H]3[C@H]42)nc1=O = > 50 µM
• Cc1ccc(S(=O)(=O)N2C[C@@]34CNC[C@@H](O3)[C@H]3C(=O)CC[C@]2(C(C)C)[C@H]34)cc1 = > 50 µM
• Cc1ccc(S(=O)(=O)N2C[C@@]34CN(C(=O)c5cccs5)C[C@@H](O3)[C@H]3[C@@H](Oc5cc(C)nc(N)n5)CC[C@]2(C(C)C)[C@H]34)cc1 = > 50 µM
